- ASSAYED TARGET: Beta-galactosidase (Homo sapiens) (UniProt P16278)
- Sequence (P16278 whole entry): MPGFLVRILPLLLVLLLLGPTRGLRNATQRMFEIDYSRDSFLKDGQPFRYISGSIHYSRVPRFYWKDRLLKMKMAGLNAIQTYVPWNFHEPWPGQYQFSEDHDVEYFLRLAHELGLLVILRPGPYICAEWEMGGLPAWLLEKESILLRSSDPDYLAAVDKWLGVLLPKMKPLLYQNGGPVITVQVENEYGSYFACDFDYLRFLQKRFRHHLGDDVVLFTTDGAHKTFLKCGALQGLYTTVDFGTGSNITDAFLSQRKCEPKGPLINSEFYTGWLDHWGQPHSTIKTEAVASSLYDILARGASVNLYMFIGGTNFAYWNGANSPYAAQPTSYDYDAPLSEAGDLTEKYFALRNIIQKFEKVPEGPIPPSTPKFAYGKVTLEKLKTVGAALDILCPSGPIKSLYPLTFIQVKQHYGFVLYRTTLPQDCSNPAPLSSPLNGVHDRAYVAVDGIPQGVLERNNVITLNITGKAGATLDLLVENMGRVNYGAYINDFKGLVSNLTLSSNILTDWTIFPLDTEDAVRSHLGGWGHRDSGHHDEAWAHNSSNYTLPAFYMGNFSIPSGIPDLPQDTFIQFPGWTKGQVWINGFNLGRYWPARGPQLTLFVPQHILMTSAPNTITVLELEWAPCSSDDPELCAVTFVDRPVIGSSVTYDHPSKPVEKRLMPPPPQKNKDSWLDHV
- PROTOCOL NOTES: Concentration required to inhibit beta-galactosidase
Quick list: Concentration per entry.
Respond numerically; units are µM and should not be typed.

>  <LINE NOTATION>
O[C@@H]1[C@@H](O)[C@@H](O)[C@H](O[C@H]2[C@@H](O)[C@H](O)[C@@H](O)[C@@H](O)[C@@H]2O)[C@@H](O)[C@H]1O

>  <TEST VALUE>
600

$$$$
>  <LINE NOTATION>
O[C@H]1[C@H](O)[C@@H](O[C@H]2[C@H](O)[C@H](O)C=C[C@@H]2O)C=C[C@H]1O

>  <TEST VALUE>
190

$$$$
>  <LINE NOTATION>
O[C@H]1[C@H](O)[C@@H](O)C=C[C@H]1O

>  <TEST VALUE>
600

$$$$

Qu. What value of measured Concentration is listed for "O[C@H]1[C@H](O)[C@@H](O[C@H]2C=C[C@@H](O)[C@@H](O)[C@@H]2O)C=C[C@H]1O" ?
Ans. 250
